system: XIAP-BIR3 (Homo sapiens (Human))
Sequence (P98170 241-356): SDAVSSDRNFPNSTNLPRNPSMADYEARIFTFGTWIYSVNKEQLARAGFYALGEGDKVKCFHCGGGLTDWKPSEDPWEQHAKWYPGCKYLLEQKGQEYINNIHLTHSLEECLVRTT
assay: BIR binding assay (FRET competition), XIAP BIR3
property label: IC50

Worked set:
[
  {
    "mol smiles": "C[C@@H]1CN(CC(=O)N2CC(C)(C)c3[nH]c(=O)c(Cc4ccc(F)cc4)cc32)[C@@H](CN2CCN(C(=O)COc3cccc(OCC(=O)N4CCN(C[C@H]5CN[C@H](C)CN5CC(=O)N5CC(C)(C)c6[nH]c(=O)c(Cc7ccc(F)cc7)cc65)[C@H](C)C4)c3)C[C@H]2C)CN1",
    "IC50": "31.6 to 501 nM"
  },
  {
    "mol smiles": "C[C@@H]1CN(CC(=O)N2CC(C)(C)c3[nH]c(=O)c(Cc4ccc(F)cc4)cc32)[C@@H](CN2CCN(Cc3c(F)c(F)c(CN4CCN(C[C@H]5CN[C@H](C)CN5CC(=O)N5CC(C)(C)c6[nH]c(=O)c(Cc7ccc(F)cc7)cc65)[C@H](C)C4)c(F)c3F)C[C@H]2C)CN1",
    "IC50": "31.6 to 501 nM"
  },
  {
    "mol smiles": "C[C@@H]1CN(CC(=O)N2CC(C)(C)c3[nH]c(=O)c(Cc4ccc(F)cc4)cc32)[C@@H](CN2CCN(CCc3cn(CCC(=O)N4CCN(C[C@H]5CN[C@H](C)CN5CC(=O)N5CC(C)(C)c6[nH]c(=O)c(Cc7ccc(F)cc7)cc65)[C@H](C)C4)nn3)C[C@H]2C)CN1",
    "IC50": "7.94 to 15.8 nM"
  },
  {
    "mol smiles": "C[C@@H]1CN(CC(=O)N2CC(C)(C)c3[nH]c(=O)c(Cc4ccc(Cl)cc4C(F)(F)F)cc32)[C@@H](CN2CCO[C@H](C(=O)NCc3ccc(CNC(=O)[C@@H]4CN(C[C@H]5CN[C@H](C)CN5CC(=O)N5CC(C)(C)c6[nH]c(=O)c(Cc7ccc(Cl)cc7C(F)(F)F)cc65)CCO4)cc3)C2)CN1",
    "IC50": "15.8 to 31.6 nM"
  }
]

Please turn your attention to the following entry.
Query: Item C[C@@H]1CN(CC(=O)N2CC(C)(C)c3[nH]c(=O)c(Cc4ccc(F)cc4)cc32)[C@@H](CN2CCN(C(=O)c3ccnc(-c4cc(C(=O)N5CCN(C[C@H]6CN[C@H](C)CN6CC(=O)N6CC(C)(C)c7[nH]c(=O)c(Cc8ccc(F)cc8)cc76)[C@H](C)C5)ccn4)c3)C[C@H]2C)CN1 has what recorded IC50?
Result: 1.38 to 7.94 nM
